assayedSystem: Vasopressin V2 receptor (Homo sapiens)
Sequence (P30518 whole entry): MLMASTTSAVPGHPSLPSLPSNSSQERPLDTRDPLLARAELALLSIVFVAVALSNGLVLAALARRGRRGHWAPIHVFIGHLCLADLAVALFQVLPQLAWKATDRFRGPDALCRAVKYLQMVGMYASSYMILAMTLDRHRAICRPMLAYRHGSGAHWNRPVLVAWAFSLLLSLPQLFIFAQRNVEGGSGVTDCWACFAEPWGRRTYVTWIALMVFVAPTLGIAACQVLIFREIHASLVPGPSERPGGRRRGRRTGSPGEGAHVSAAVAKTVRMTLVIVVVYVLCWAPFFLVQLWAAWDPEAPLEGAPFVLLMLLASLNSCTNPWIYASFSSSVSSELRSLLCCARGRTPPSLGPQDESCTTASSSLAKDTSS
methodDescription: Inhibition constant for vasopressin-stimulated adenylate cyclase of medullary membranes of human kidney
Numbered stars: 1 amine (or outer) side, 2 acyl side, 3 side chain; on linkers, the order of the positions; unused ones are H or OH. Bridge positions count the residues as written; N and C are the ends. Square brackets hold non-standard residues; d marks the D form. Peptide text beside a SMILES is read from it. * marks the point of attachment. X1 = O=C(CC1(S[*:2])CCCCC1)[*:1]; Agmatine = N=C(N)NCCCCN*
This listing pairs compounds with measured Ki.

compound	resultUnits	Ki
CCOc1ccc(C[C@H]2NC(=O)CC3(CCCCC3)SSC[C@@H](C(=O)N3CCC[C@H]3C(=O)NCCCCN=C(N)N)NC(=O)[C@H](CC(N)=O)NC(=O)[C@H](C(C)C)NC(=O)[C@H](Cc3ccccc3)NC2=O)cc1 ([dY](Et)FVNCP-Agmatine; linker N-5 via X1)	nM	3.7
CCOc1ccc(C[C@H]2NC(=O)CC3(CCCCC3)SSC[C@H](C(=O)N[C@H](CCCCN)C(N)=O)NC(=O)[C@@H](CC(N)=O)NC(=O)[C@H](C(C)C)NC(=O)[C@@H](Cc3ccccc3)NC2=O)cc1	nM	3.3
